# Protocol: Stability study: total related substances of crystalline form lots on storage
# Conditions used: stored at 5° C.; 12 months
The following compounds are listed with their measured Total Related Substances Results values.
Measured quantity: Total Related Substances Results

[[record]]
compound = "Nc1nc2[nH]cc(CCc3ccc(C(=O)N[C@@H](CCC(=O)O)C(=O)O)cc3)c2c(=O)[nH]1 [Lot A, pemetrexed disodium]"
observed = "0.28% of Total"

[[record]]
compound = "Nc1nc2[nH]cc(CCc3ccc(C(=O)N[C@@H](CCC(=O)O)C(=O)O)cc3)c2c(=O)[nH]1 [Lot D, pemetrexed disodium]"
observed = "0.24% of Total"

[[record]]
compound = "Nc1nc2[nH]cc(CCc3ccc(C(=O)N[C@@H](CCC(=O)O)C(=O)O)cc3)c2c(=O)[nH]1 [Lot B, pemetrexed disodium]"
observed = "0.4% of Total"

[[record]]
compound = "Nc1nc2[nH]cc(CCc3ccc(C(=O)N[C@@H](CCC(=O)O)C(=O)O)cc3)c2c(=O)[nH]1 [Lot C, pemetrexed disodium]"
observed = "0.51% of Total"

